# Lookup of reported relative viability keyed by entry
test system: MES-SA; experiment: relative viability vs DMSO control (72 h) (fraction); higher = more viable cells; settings: 0.01372 µM
Would you mind answering with just the numeric figure?

[[record]]
molecule = "Clc1ccc(Nc2nnc(Cc3ccncc3)c3ccccc23)cc1"
number = 0.925

[[record]]
molecule = "N#CCNC(=O)c1ccc(-c2ccnc(Nc3ccc(N4CCOCC4)cc3)n2)cc1"
number = 0.934

[[record]]
molecule = "CCN1C(=O)N(c2c(F)c(OC)cc(OC)c2F)Cc2cnc3[nH]c(CN4CCOCC4)cc3c21"
number = 0.91

[[record]]
molecule = "CCN(CC)CCNC(=O)c1c(C)[nH]c(/C=C2\\C(=O)Nc3ccc(F)cc32)c1C"
number = 0.929

[[record]]
molecule = "CC(C)NC[C@@H](C(=O)N1CCN(c2ncnc3c2[C@H](C)C[C@H]3O)CC1)c1ccc(Cl)cc1"
number = 0.899


# return recorded relative viability for input COC(=O)N[C@@H](C)CNc1nccc(-c2cn(C(C)C)nc2-c2cc(Cl)cc(NS(C)(=O)=O)c2F)n1 0.958

# return recorded relative viability for input O=C1NC(=O)[C@@H](c2cn3c4c(cccc24)CCC3)[C@@H]1c1c[nH]c2ccccc12 [Tivantinib] 0.914
